The molecules listed here are annotated with their inhibition.
- target.of.assay: G/T mismatch-specific thymine DNA glycosylase (Homo sapiens)
- conditions.used: Compound Concentration 10.0 uM, Hit No
- Description: Inhibition of TDG by quantifying inhibition of TDG-mediated cleavage and dissociation of quenched duplex DNA oligonucleotides, measured as fluorescence at 594 nm. To generate a functional strand incision and increase turn-over this assay is coupled to APE1.
Please answer using the number first and the unit second.

Worked examples, 3 molecules total:
CN1C(=O)[C@@H](NC(=O)c2cc3ccccc3[nH]2)N=C(c2ccccc2)c2ccccc21
4.69%
OCCOCCN1CCN(C(c2ccccc2)c2ccc(Cl)cc2)CC1 (stereo not drawn)
3.31%
COc1cc([N+](=O)[O-])ccc1NC(=O)c1ccccc1O
9.09%

Form entry - test system: G/T mismatch-specific thymine DNA glycosylase (Homo sapiens); read-out: inhibition; molecule: COc1cc(NC(=O)CCN2CCC(OC(=O)Nc3ccccc3-c3ccccc3)CC2)c(Cl)cc1CNC[C@H](O)c1ccc(O)c2[nH]c(=O)ccc12;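 further: human TDG cleavage of quenched duplex DNA oligonucleotides coupled to APE1, strand release read as fluorescence at 594 nm, inhibition of TDG activity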
16.7%

Now consider Nc1nc(NCc2ccccc2)nc(-c2cccc(CO)c2)n1 .
32.3%

Now consider O=C(NCCNCC(O)COc1ccc(O)cc1)N1CCOCC1 (stereo not drawn) .
9.41%

Now consider COc1cc(C(=O)N(CCC2CCCN2C)C/C(C)=C/c2ccccc2F)cc(OC)c1OC (stereo not drawn) .
0.239%

Now consider COc1ccc(CCN(C)CCCC(C#N)(c2cc(OC)c(OC)c(OC)c2)C(C)C)cc1OC (stereo not drawn) .
-7.93%

Now consider COc1ccc(OC(=O)N(CC(=O)O)Cc2ccc(OCCc3nc(-c4ccccc4)oc3C)cc2)cc1 .
53.7%
